Test: Octanol- water partition coefficient was determined.
PARAMETER MEASURED: Partition coefficient

Known results for compounds:
INSERT INTO measurements (smiles_data, parameter_measured, endpoint_value) VALUES
  ('C[C@]12C=CC(=O)C=C1CC[C@@H]1[C@@H]2[C@@H](O)C[C@@]2(C)[C@H]1CC[C@]2(O)C(=O)CO', 'Partition coefficient', 30),
  ('C[C@]12C=CC(=O)C=C1CC[C@@H]1[C@@H]2[C@@H](O)C[C@@]2(C)[C@H]1CC[C@]2(O)[C@@H](O)C(=O)NCc1ccccc1', 'Partition coefficient', 32.5),
  ('CNC(=O)[C@H](O)[C@@]1(O)CC[C@H]2[C@@H]3CCC4=CC(=O)C=C[C@]4(C)[C@H]3[C@@H](O)C[C@@]21C', 'Partition coefficient', 10),
  ('CCCNC(=O)[C@H](O)[C@@]1(O)CC[C@H]2[C@@H]3CCC4=CC(=O)C=C[C@]4(C)[C@H]3[C@@H](O)C[C@@]21C', 'Partition coefficient', 26.7),
  ('CNC(=O)[C@@H](O)[C@@]1(O)CC[C@H]2[C@@H]3CCC4=CC(=O)C=C[C@]4(C)[C@H]3[C@@H](O)C[C@@]21C', 'Partition coefficient', 8.6);

I: CCCNC(=O)[C@@H](O)[C@@]1(O)CC[C@H]2[C@@H]3CCC4=CC(=O)C=C[C@]4(C)[C@H]3[C@@H](O)C[C@@]21C
II: C[C@]12C=CC(=O)C=C1CC[C@@H]1[C@@H]2[C@@H](O)C[C@@]2(C)[C@H]1CC[C@]2(O)[C@H](O)C(=O)NCc1ccccc1
Ask | Determine, for I and II , which has the greater value of Partition coefficient. Answer by stating the label of the chosen item.
Reply | II
(II: 30, I: 16.3)

Data origin, for the record: ChEMBL document CHEMBL1123844
